- experiment-notes: Acute toxicity in ip dosed C57BL/6 mouse measured up to 14 days
- Type: organism-based
- assay-conditions: in vivo
Please respond with reported log10(LD50 at 336 h) for every item in the list.
Scale: decimal log of LD50 at 336 h, LD50 at 336 h in mg/kg.

-- ask I am curious: what log10(LD50 at 336 h) value has been reported for Cc1c2c(cc[n+]1Cc1ccccc1)c1ccc(OCc3ccccc3)cc1n2CC(C)C.[Br-] ?
-- reply 0.70

-- ask Same for CCn1c2cc(OCCCc3ccccc3)ccc2c2ccnc(C)c21
-- reply 2.30

-- ask Same for CCn1c2cc(OCCCc3ccccc3)ccc2c2cc[n+](Cc3ccccc3)c(C)c21.[Br-]
-- reply 1.18

-- ask Same for CCC(CC)Oc1ccc2c3cc[n+](Cc4ccccc4)c(C)c3n(CCCc3ccccc3)c2c1.[Br-]
-- reply 0.80

-- ask Same for CCC(CC)Oc1ccc2c3ccnc(C)c3n(CCCc3ccccc3)c2c1
-- reply 2.00

-- ask Same for CCn1c2cc(OCC(C)C)ccc2c2ccnc(C)c21
-- reply 2.30

-- ask Same for Cc1c2c(cc[n+]1Cc1ccccc1)c1ccc(OCCCc3ccccc3)cc1n2CCCc1ccccc1.[Br-]
-- reply 0.57

-- ask Same for CCn1c2cc(OCC(C)C)ccc2c2cc[n+](Cc3ccccc3)c(C)c21.[Br-]
-- reply 1.10

-- ask Same for CCn1c2cc(OCc3c(F)c(F)c(F)c(F)c3F)ccc2c2cc[n+](Cc3ccccc3)c(C)c21.[Br-]
-- reply 1.10
